target: Lethal factor (Bacillus anthracis) (UniProt P15917); assay: Bacillus anthracis LF protease inhibitors, dose response, biochemical, multiplex microsphere (AID 720672); conditions: multiplex microsphere LF protease substrate cleavage, flow cytometry
Sequence (P15917 whole entry, looked up): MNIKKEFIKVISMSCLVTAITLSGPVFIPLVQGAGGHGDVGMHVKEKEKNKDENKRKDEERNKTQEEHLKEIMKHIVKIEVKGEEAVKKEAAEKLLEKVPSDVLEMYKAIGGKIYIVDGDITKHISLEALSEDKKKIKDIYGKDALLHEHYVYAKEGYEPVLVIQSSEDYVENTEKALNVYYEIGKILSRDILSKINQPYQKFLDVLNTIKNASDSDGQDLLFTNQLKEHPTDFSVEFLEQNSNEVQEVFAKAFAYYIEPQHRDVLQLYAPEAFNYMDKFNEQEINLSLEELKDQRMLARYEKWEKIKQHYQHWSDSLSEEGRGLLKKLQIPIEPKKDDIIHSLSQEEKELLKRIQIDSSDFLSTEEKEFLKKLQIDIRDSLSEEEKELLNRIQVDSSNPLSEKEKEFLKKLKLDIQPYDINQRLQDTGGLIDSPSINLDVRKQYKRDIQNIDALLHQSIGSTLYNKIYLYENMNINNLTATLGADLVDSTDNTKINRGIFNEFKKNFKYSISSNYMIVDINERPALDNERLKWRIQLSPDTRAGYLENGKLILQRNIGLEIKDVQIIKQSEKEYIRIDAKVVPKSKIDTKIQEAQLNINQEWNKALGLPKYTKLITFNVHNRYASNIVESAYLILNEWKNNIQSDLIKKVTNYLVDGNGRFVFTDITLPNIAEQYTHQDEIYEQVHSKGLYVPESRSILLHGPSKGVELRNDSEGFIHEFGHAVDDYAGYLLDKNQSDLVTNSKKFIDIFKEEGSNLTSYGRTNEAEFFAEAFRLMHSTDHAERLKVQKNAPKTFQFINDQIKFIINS
Active and inactive are the calls of the source. The rule behind the calls is not given here.
Log the outcome using a class from y (active), n (inactive)

{"SMILES": "Fc1ccc(-c2nc3nc(-c4ccc(OC(F)(F)F)cc4)cn3nc2-c2ccc(F)cc2)cc1", "CLASS_NAME": "n"}

Incoming: Any idea what this test logged for CC(C)CS(=O)(=O)Nc1ccc2nc(-c3ccccc3)c(-c3ccccc3)nc2c1 ?
Outgoing: n

Incoming: Any idea what this test logged for CCNC(=O)Nc1ccc2nc(-c3cccs3)c(-c3cccs3)nc2c1 ?
Outgoing: y

Incoming: Any idea what this test logged for O=C(Nc1ccc2nc(-c3ccccc3)c(-c3ccccc3)nc2c1)NC1CCCC1 ?
Outgoing: n

Incoming: Any idea what this test logged for O=C(Nc1ccc2nc(-c3ccccc3)c(-c3ccccc3)nc2c1)C1CCCCC1 ?
Outgoing: n

Incoming: Any idea what this test logged for CS(=O)(=O)c1ccc(-c2cn3nc(-c4ccccc4)c(-c4ccccc4)nc3n2)cc1 ?
Outgoing: n

Incoming: Any idea what this test logged for CS(=O)(=O)c1ccc(-c2cn3nc(-c4ccc(F)cc4)c(-c4ccc(F)cc4)nc3n2)cc1 ?
Outgoing: n

Incoming: Any idea what this test logged for CC(C)(C)NC(=O)Nc1ccc2nc(-c3ccccc3)c(-c3ccccc3)nc2c1 ?
Outgoing: n

Incoming: Any idea what this test logged for O=C(Nc1ccc2nc(-c3ccccc3)c(-c3ccccc3)nc2c1)C1CCC1 ?
Outgoing: n
